Exercise: state measured apparent KD of MS2 coat protein for each of the sequences provided.
Tested on: MS2 coat protein
Assay: apparent KD of MS2 coat protein; designed switch direction (-1 OFF switch, 1 ON switch): 1; higher = weaker reporter binding
Conditions: Eterna round: R95; input ligand: microRNA oligo, concentration not stated

Quickly give me recorded apparent KD of MS2 coat protein for CUCAAACAUGAGGAUCACCCAUGUUUUUUCAUGGGAGGAUAUCUAAGUUCAUUAUAUUCAGGAGAAGGCCUAUGUC [× ×•×ª×• ×ž×“×™× ×” × ×—×ª-07] (puzzle: Same State 1) 729 nM

Quickly give me recorded apparent KD of MS2 coat protein for GUGGCCCAGGCACAGGAUAUGUUUCUCGUAACAUGAGGAUCACCCAUGUGCCUAUGAGAUUUUAUGCAGAAGGGUGCACGCCACG [JL Atiinbe mod 01] (puzzle: Same State 2) 56 nM

Quickly give me recorded apparent KD of MS2 coat protein for AUGGUGCAGGUACAGGAUAUGUUGCUCGUAACAUGAGGAUCACCCAUGUACCUAUGAGAAUAAAUGCAGAAGGGUGCACACCACG [Mat - Same State 2 - Mod of UCT - D92] (puzzle: Same State 2) 3220 nM

Quickly give me recorded apparent KD of MS2 coat protein for CAGCGCUGUCGAGAGGAUAUGCGGUGAUGGACAUGAGGAUCACCCAUGUUAGCGGUAGCAUUACGGUAGAAGGCUCUACAGCUGC [Soteed - 3] (puzzle: Same State 2) 24.7 nM

Quickly give me recorded apparent KD of MS2 coat protein for CGGGUACAUGAGGAUCACCCAUGUGGGAGGGAUGCAGGAUAUGUGGGAAAAGGGUAUGAAACAGAAGGGCAAGGAG [JR_SS!_Sub013] (puzzle: Same State 1) 33.2 nM

Quickly give me recorded apparent KD of MS2 coat protein for GGAGCCGGCACUGAGGAUAUUCAUAUUAAAACAUGAGGAUCACCCAUGUGGGCCAGAAGGCCUUGGGAGAAGGCAGGUCGGCCCG [Bibimoar - 4] (puzzle: Same State 2) 140 nM

Quickly give me recorded apparent KD of MS2 coat protein for AGUCCAGCCUGAGCUGGACAAAAGCAUGUACAUGAGGAUCACCCAUGUCAUGUACAAGCUUUUUGCUCGUCUUAGAA [Mat - hsa-mir-208a - Mod of JL - D26] (puzzle: Sensor for hsa-mir-208a) 16.7 nM

Quickly give me recorded apparent KD of MS2 coat protein for CACAAUCUAUCUGAGGAUAUCAUGAAAAAAACAUGAGGAUCACCCAUGUGCAGGAAAACUGCAUAUGAGAAGGCAGAUAGAUUGG [salish99_SS2_r3_014] (puzzle: Same State 2) 577 nM

---

Tested on: MS2 coat protein
Experiment: apparent KD of MS2 coat protein; higher = weaker reporter binding
Conditions: Eterna round: R107; input ligand: theophylline 2 mM
Exercise: state measured apparent KD of MS2 coat protein for each of the sequences provided.
The reply should contain only the number, in nM.

Quickly give me recorded apparent KD of MS2 coat protein for AUUUUCGUAGGUUAAAGUUUAGAAACUGAAGGAGCGUGGUAUUACACAGGUAGGUCGCAGAUUUUACAUGAGGAUCACCCAUGUU [JR_ExcArginiA_Sub011] 20.6

Quickly give me recorded apparent KD of MS2 coat protein for CCUCAAUAGACGGCCGCCACUGAAUCAUGCGGAUACAUGAGGAUCACCCAUGUGGGUGUGGUACGCAGGACCGGGUCAAGACCCG [#13 Same State - Tryptophan B] 1860

Quickly give me recorded apparent KD of MS2 coat protein for UUAUAAGUACCGGUCCUCAGAUCCUCAUGACGAGGACCGGUACGGCCGCCACUCGAAACAUGAGGAUCACCCAUGUAAUAAUACU [Brourdmod08] 33.1

Quickly give me recorded apparent KD of MS2 coat protein for GUUGGUUUGCGAAGGAGCGGGUAUGUUUUCUACUGGAUCCUAACAUGAGGAUCACCCAUGUCCCAGGUAGGUCGCGCGGGCUUUG [12.aA] 54.5

Quickly give me recorded apparent KD of MS2 coat protein for UGCCGAGACGUGGAUUACCCAUGUACCGAAGGAGCGCCCGAAAGGGCAGGUAGGUCGCGGAGGACAUGAGGAUCACCCAUGUCGA 166

Quickly give me recorded apparent KD of MS2 coat protein for AAUGAGUGGUGGUCAAGUGAUCCUCAUGAACGAGGACCGGUACGGCCGCCACUCGAUAACAUGAGGAUCACCCAUGUAAUAAUAA [|T'-M'-Trp-Ms2|_Design8] 22.4

---

Tested on: MS2 coat protein
Test: apparent KD of MS2 coat protein, switch OFF state (with FMN for OFF switches, without FMN for ON switches); designed switch direction (-1 OFF switch, 1 ON switch): -1; higher = weaker reporter binding
Conditions: FMN input: 0 or 200 uM; Eterna round: R93 (includes R88 designs)
Exercise: state measured apparent KD of MS2 coat protein for each of the sequences provided.
The reply should contain only the number, in nM.

Quickly give me recorded apparent KD of MS2 coat protein for AAUGCGGCAGGAUAUACAUGAGGAUCACCCAUGUAGAUCAGAUAUAUGGGAAAACCAUGUAGAAGGGCCGCAAA [Ex 3May 60] 29.6

Quickly give me recorded apparent KD of MS2 coat protein for AUCGAUCGAGGAUAUACAUGAGGAUCACCCAUGUAAAAAAAAAAAAAGGCCUCAGGACGUAGAAGGCGACGCAA [JR_Exc003_Sub402] 22.6

Quickly give me recorded apparent KD of MS2 coat protein for AUCAUGUUAGGAUAUAUAAGAAAAGAAAAGAAAGAAAAGAAAUAGAAGGAACAUGAGGAUCACCCAUGUAAGAA [EteRNA is fun!] 23.1

Quickly give me recorded apparent KD of MS2 coat protein for AACAGGACAGGAUAUACAUGAGGAUCACCCAUGUAGGAAUUAAGCAGAGUACCAAACAGUAGAAGGGUCAUGGA [Ruby 27] 44.7

Quickly give me recorded apparent KD of MS2 coat protein for AGUCCAGAAGGAUAUACAUAGGUGAAAAAAAAAAAAAAACUACAUGAGGAUCACCCAUGUAGAAGGUCUGGACA [Mod of Brourd] 25.5

Quickly give me recorded apparent KD of MS2 coat protein for ACUUAUGAAGGAUAUACUAGCAACAUGCACUCAACACACACACAUGAGGAUCACCCAUGUAGAAGGUCAAACAU [JR_Exc002_Sub1206] 19.7

Quickly give me recorded apparent KD of MS2 coat protein for AAAAAGUCAGGAUAUCUGGAUAGGAAAAAGAAAACCUAUCCAGAGAAGGGACAUGAGGAUCACCCAUGUAAAAA [JL cataway mod 1] 42.4

Quickly give me recorded apparent KD of MS2 coat protein for AAUAACAGAGGAUAUACAAAAAUAAAAGGAAACAAAAGAAAACAUGAGGAUCACCCAUGUAGAAGGCUGAAUAA [Tetraloop BlockHead] 20.3

---

Tested on: MS2 coat protein
Assay: apparent KD of MS2 coat protein, switch ON state; designed switch direction (-1 OFF switch, 1 ON switch): 1; higher = weaker reporter binding
Details: FMN input: 0 or 200 uM; Eterna round: R93 (includes R88 designs)
Exercise: state measured apparent KD of MS2 coat protein for each of the sequences provided.
The reply should contain only the number, in nM.

Report apparent KD of MS2 coat protein under test system MS2 coat protein for AAGAAACAUGAGGAUCACCCAUGUAGAAAUAUGGGAGGAUAUACAAGGACGAAAGUCAAGGUAGAAGGCCUAAGAA [Mat - Same State 1 - Meechl mod - D132] . 20.7

Report apparent KD of MS2 coat protein under test system MS2 coat protein for GAAAAACAUGAGGAUCACCCAUGUAGUAAUAUGGAAGGAUAUACAAAGACGUAAGUCAAAGUAGAAGGUCUAAAAG [Garnet 100] . 21.6

Report apparent KD of MS2 coat protein under test system MS2 coat protein for AAAAAAAAAAGGCAGGAUAUCCAAAAAAAAACAUGAGGAUCACCCAUGUAAAAAAAAAAAAAAUGGGAGAAGGGCCAAAAAAAAAA [Mat - Mod of Eli] . 24.9

Report apparent KD of MS2 coat protein under test system MS2 coat protein for CGGAGACAUGAGGAUCACCCAUGUGAGAAGAGGCGAGGAUAUCGAAAGAAAGAAGAGAAACGAGAAGGCGCGAGCC [salish99-SS1-080(!)] . 32.1

Report apparent KD of MS2 coat protein under test system MS2 coat protein for AAUAGACAUGAGGAUCACCCAUGUAGAAUUAUGGGAGGAUAUACAAAGACGAGAGUCAGAGUAGAAGGCCUAGGAA [salish99-ss1-148] . 23.6

Report apparent KD of MS2 coat protein under test system MS2 coat protein for AGAAAUAAAAGCUAGGAUAUCCAAAAGAAAACAUGAGGAUCACCCAUGUGAAAGAAAAUAAAAUGGGAGAAGGAGCAAAAUAAGA [Topaz 51] . 17.5
